- test system: His-tagged Human KRAS^G12D (Homo sapiens (Human), UniProt P01116, G12D)
- Sequence (P01116-2 other isoform, or with tags, fused parts or gaps G12D): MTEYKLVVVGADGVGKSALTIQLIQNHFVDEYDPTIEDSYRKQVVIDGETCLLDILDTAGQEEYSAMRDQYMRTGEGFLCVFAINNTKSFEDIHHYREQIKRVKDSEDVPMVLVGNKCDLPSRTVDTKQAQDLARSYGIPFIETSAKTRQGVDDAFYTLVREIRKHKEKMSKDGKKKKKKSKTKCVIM
- procedure summary: HTRF KRAS G12D GTP binding assay
- recorded conditions: displacement of GTP-Red tracer
pIC50: −log10 of the molar value.
# Lookup of reported pIC50 keyed by entry

compound: CCc1c(F)ccc2cc(O)cc(-c3ncc4c(N5CCC6CC6(O)C5)nc(OC[C@@]56CCCN5C[C@H](F)C6)nc4c3F)c12 (some centres unmarked) [Compound 52]
pIC50: < 6.00
//
compound: N#Cc1c(N)sc2c(F)ccc(-c3c(Cl)cc4c(N5CCC[C@]6(CCO6)C5)nc(OCC5(CN6CCCCC6)CC5)nc4c3F)c12 [Compound 48a]
pIC50: < 6.00
//
compound: CCc1c(F)ccc2cc(O)cc(-c3ncc4c(N5CC6(CC(O)C6)C5)nc(OC[C@@]56CCCN5C[C@H](F)C6)nc4c3F)c12 [Compound 36]
pIC50: < 6.00
//
compound: CCc1c(F)ccc2cc(O)cc(-c3ncc4c(N5CCCC5c5cccnc5)nc(OC[C@@]56CCCN5C[C@H](F)C6)nc4c3F)c12 (some centres unmarked) [Compound 24]
pIC50: < 5.00
//
compound: CCc1c(F)ccc2cc(O)cc(-c3ncc4c(N5CCCC(O)CC5)nc(OCC5(CN(C)C)CC5)nc4c3F)c12 (centres unmarked) [Compound 44a]
pIC50: 6.63
//
compound: CCc1c(F)ccc2cc(O)cc(-c3ncc4c(N5CCCC(OC)CC5)nc(OCC5(CN(C)C)CC5)nc4c3F)c12 (centres unmarked) [Compound 40a]
pIC50: 6.37
//
compound: CCc1c(F)ccc2cc(O)cc(-c3ncc4c(N5CCCC5c5ccccc5)nc(OC[C@@]56CCCN5C[C@H](F)C6)nc4c3F)c12 (some centres unmarked) [Compound 19]
pIC50: < 5.00
//
compound: CCc1c(F)ccc2cc(O)cc(-c3ncc4c(N5C6CCCC5CC6)nc(OC[C@@]56CCCN5C[C@H](F)C6)nc4c3F)c12 [Compound 17]
pIC50: < 6.00
//
compound: CCc1c(F)ccc2cc(O)cc(-c3ncc4c(N5CCC(C)(O)C5)nc(OC[C@@]56CCCN5C[C@H](F)C6)nc4c3F)c12 (some centres unmarked) [Compound 16]
pIC50: < 6.00
//
compound: CCc1c(F)ccc2cc(O)cc(-c3ncc4c(N5CCC[C@H]5C(=O)OC)nc(OC[C@@]56CCCN5C[C@H](F)C6)nc4c3F)c12 [Compound 7]
pIC50: < 6.00
//
compound: Nc1cc(Cl)c(C(F)(F)F)c(-c2ncc3c(N4CCCC5(COC5)C4)nc(OC[C@@]45CCCN4C[C@H](F)C5)nc3c2F)c1 [Compound 63]
pIC50: < 6.00
//
compound: CCc1c(F)ccc2cc(O)cc(-c3ncc4c(N5CCC[C@]6(CCO6)C5)nc(OCC5(CN6CCCCC6)CC5)nc4c3F)c12 [Compound 9a]
pIC50: 8.10
//
compound: CCc1c(F)ccc2cc(O)cc(-c3ncc4c(N5CCC6(CCC6=O)CC5)nc(OC[C@@]56CCCN5C[C@H](F)C6)nc4c3F)c12 [Compound 59]
pIC50: < 6.00
//
compound: CCc1c(F)ccc2cc(O)cc(-c3ncc4c(N5CCC[C@H]5C(=O)O)nc(OC[C@@]56CCCN5C[C@H](F)C6)nc4c3F)c12 [Compound 8]
pIC50: < 6.00
//
compound: C#Cc1c(F)ccc2cc(O)cc(-c3ncc4c(N5CC=CCC5)nc(OCC5(CN(C)C)CC5)nc4c3F)c12 [Compound 36a]
pIC50: < 6.00
//
compound: CCc1c(F)ccc2cc(O)cc(-c3ncc4c(N5CCC6(CCCCC6)C5)nc(OC[C@@]56CCCN5C[C@H](F)C6)nc4c3F)c12 [Compound 40]
pIC50: < 6.00
//
compound: CCc1c(F)ccc2cc(O)cc(-c3ncc4c(N5CC6CC(C6)C5)nc(OCC5(CN(C)C)CC5)nc4c3F)c12 [Compound 38a]
pIC50: < 6.00
